- study_target: human A2A adenosine receptor (Homo sapiens)
- experiment_summary: Radioligand binding, human A2A AR (Table 1)
- condition_description: read-out: A2A % inhib.
measured_quantity: inhibition at 10 µM (%)

molecule	unit_label	assay_value
CNC(=O)C12CC1C(n1cnc3c(NCc4cccc(Cl)c4)nc(C#C[Si](C)(C)C)nc31)C(O)C2O (centres unmarked) [Compound 4]	%	52

[a] CNC(=O)C12CC1C(n1cnc3c(NCc4cccc(C#CCCCC(=O)NCCNC(C)=O)c4)nc(Cl)nc31)C(O)C2O (centres unmarked) [Compound 11]
[b] CNC(=O)C12CC1C(n1cnc3c(NCc4cc(OC)ccc4OC)nc(I)nc31)C(O)C2O (centres unmarked) [Compound 2]
[c] CNC(=O)C12CC1C(n1cnc3c(NOC)nc(Cl)nc31)C(O)C2O (centres unmarked) [Compound 21]
Ask | Please list these molecules in decreasing order of inhibition at 10 µM. Form field (ranking): labels in requested order.
Reply | a, b, c

----------
- study_target: human A2A adenosine receptor (Homo sapiens, UniProt P29274)
- Sequence (P29274 whole entry): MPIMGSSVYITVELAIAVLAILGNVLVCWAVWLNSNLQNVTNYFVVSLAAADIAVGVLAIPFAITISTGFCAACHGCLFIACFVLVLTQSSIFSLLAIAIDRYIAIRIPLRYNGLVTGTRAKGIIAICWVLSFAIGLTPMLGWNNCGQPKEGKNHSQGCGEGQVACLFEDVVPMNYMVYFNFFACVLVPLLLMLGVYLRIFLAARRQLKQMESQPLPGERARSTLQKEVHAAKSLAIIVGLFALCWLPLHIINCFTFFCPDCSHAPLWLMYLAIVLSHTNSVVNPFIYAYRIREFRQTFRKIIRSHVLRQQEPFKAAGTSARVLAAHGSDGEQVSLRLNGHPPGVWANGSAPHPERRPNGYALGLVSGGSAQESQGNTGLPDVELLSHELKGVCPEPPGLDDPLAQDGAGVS
- experiment_summary: Radioligand binding, human A2A AR (Table 1)
- condition_description: read-out: A2A % inhib.
measured_quantity: inhibition at 10 µM (%)

Record excerpt, results attached:
compound	inhibition at 10 µM (%)
CNC(=O)C12CC1C(n1cnc3c(NCc4cccc(C#CCCCC(=O)NCCN)c4)nc(Cl)nc31)C(O)C2O (stereo not shown) [Compound 10]	58
CNC(=O)C12CC1C(n1cnc3c(NCc4cccc(Cl)c4)nc(C#CCCCC(=O)OC)nc31)C(O)C2O (stereo not shown) [Compound 6]	49

[a] CNC(=O)C12CC1C(n1cnc3c(NCc4cccc(C#CCCCC(=O)O)c4)nc(Cl)nc31)C(O)C2O (stereo not shown) [Compound 9]
[b] CNC(=O)C12CC1C(n1cnc3c(NCc4cccc(Cl)c4)nc(C#CCCCC(=O)NCCN)nc31)C(O)C2O (stereo not shown) [Compound 8]
Ask | Compare a and b and name the one whose reported inhibition at 10 µM is smaller. Give the chosen item's label as your response.
Reply | a
(a: 14%, b: 81%)

----------
- study_target: mouse A1 adenosine receptor (Mus musculus)
- Sequence (Q60612 whole entry): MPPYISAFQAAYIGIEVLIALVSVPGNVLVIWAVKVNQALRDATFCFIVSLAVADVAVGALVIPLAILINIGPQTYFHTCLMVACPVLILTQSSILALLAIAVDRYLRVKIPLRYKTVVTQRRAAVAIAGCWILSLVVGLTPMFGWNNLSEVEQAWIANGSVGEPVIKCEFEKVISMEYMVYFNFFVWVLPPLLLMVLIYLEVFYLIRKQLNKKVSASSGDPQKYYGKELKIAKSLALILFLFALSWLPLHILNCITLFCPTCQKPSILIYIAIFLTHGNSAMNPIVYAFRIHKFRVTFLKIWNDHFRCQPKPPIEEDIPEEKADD
- experiment_summary: Competition radioligand binding, mouse A1 AR, HEK293 membranes (Table 1)
- condition_description: read-out: A1 Ki; species M (mouse); [125I]I-AB-MECA; mean ± SEM
measured_quantity: Ki (nM)

chemical_structure	unit_label	Ki
CNC(=O)[C@@]12C[C@@H]1[C@@H](n1cnc3c(NCc4cccc(I)c4)nc(Cl)nc31)[C@H](O)[C@@H]2O	nM	7.32

[P] CNC(=O)[C@@]12C[C@@H]1[C@@H](n1cnc3c(NCc4cccc(Cl)c4)nc(Cl)nc31)[C@H](O)[C@@H]2O
[Q] CNC(=O)[C@@]12C[C@@H]1[C@@H](n1cnc3c(NCc4cccc(Br)c4)nc(Cl)nc31)[C@H](O)[C@@H]2O
Ask | // task: argmin of Ki over [ P , Q ] Bench note: the answer is the label of the chosen record.
Reply | Q
(Q: 8.79 nM, P: 15.3 nM)

[a] CNC(=O)[C@@]12C[C@@H]1[C@@H](n1cnc3c(NCc4cc(OC)ccc4OC)nc(Cl)nc31)[C@H](O)[C@@H]2O
[b] CNC(=O)[C@@]12C[C@@H]1[C@@H](n1cnc3c(NC)nc(Cl)nc31)[C@H](O)[C@@H]2O
Ask | Consider a and b . Which of these has its Ki at a higher number? Your answer should be the label of the entry you select.
Reply | b
(b: 55.3 nM, a: 29 nM)

----------
As shown below, each of these compounds has a reported pKi value.
- study_target: human A2A adenosine receptor (Homo sapiens)
- experiment_summary: Radioligand binding, human A2A AR (Table 1)
pKi here is simply -log10 of the concentration when that concentration is written in mol/L.

Below, 3 compounds whose answers are already recorded.
compound	study_target	measured_quantity	assay_value
CNC(=O)C12CC1C(n1cnc3c(NCc4cccc(Cl)c4)nc(SC)nc31)C(O)C2O (centres unmarked) [Compound 20]	human A2A adenosine receptor (Homo sapiens)	pKi	5.00
CNC(=O)C12CC1C(n1cnc3c(NCc4cccc(Cl)c4)nc(C#CCCCCC(=O)OC)nc31)C(O)C2O (centres unmarked) [Compound 36]	human A2A adenosine receptor (Homo sapiens)	pKi	5.45
CNC(=O)C12CC1C(n1cnc3c(NCc4cccc(Cl)c4)nc(C#CCCC(=O)NCCN)nc31)C(O)C2O (centres unmarked) [Compound 37]	human A2A adenosine receptor (Homo sapiens)	pKi	6.26

Ask | // query pKi value for entry CNC(=O)C12CC1C(n1cnc3c(NCc4cccc(Cl)c4)nc(C#CCCC(=O)NCCCCN)nc31)C(O)C2O (centres unmarked) [Compound 40]
Reply | 6.12

----------
- study_target: hA1AR (Homo sapiens)
- Construct: expressed in transfected cells; host or cells: CHO
- Sequence (P30542 1-326): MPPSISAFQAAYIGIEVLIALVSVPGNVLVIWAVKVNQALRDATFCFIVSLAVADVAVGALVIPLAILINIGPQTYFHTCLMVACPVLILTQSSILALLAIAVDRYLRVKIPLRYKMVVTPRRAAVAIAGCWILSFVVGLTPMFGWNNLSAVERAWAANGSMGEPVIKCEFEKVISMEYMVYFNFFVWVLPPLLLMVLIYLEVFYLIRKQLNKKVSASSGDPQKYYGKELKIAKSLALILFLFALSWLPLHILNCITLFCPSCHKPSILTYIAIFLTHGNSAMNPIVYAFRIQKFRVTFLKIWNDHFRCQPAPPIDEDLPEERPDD
- experiment_summary: Binding at hA1AR, CHO membranes (Example 7)
- condition_description: read-out: % inhibition hA1
measured_quantity: inhibition at 10 µM (%)

molecule	unit_label	inhibition at 10 µM
CNC(=O)[C@@]12C[C@@H]1[C@@H](n1cnc3c(NCc4cccc(Cl)c4)nc(C#Cc4ccc(F)cc4)nc31)[C@H](O)[C@@H]2O [Compound 328]	%	19
CNC(=O)[C@@]12C[C@@H]1[C@@H](n1cnc3c(NCc4cccc(Cl)c4)nc(C#Cc4ccc5ccc6cccc7ccc4c5c67)nc31)[C@H](O)[C@@H]2O [Compound 336]	%	6
CNC(=O)[C@@]12C[C@@H]1[C@@H](n1cnc3c(NC)nc(C#Cc4ccc(-c5ccccc5)cc4)nc31)[C@H](O)[C@@H]2O [Compound 324]	%	20

[P] CCc1ccc(C#Cc2nc(NC)c3ncn([C@H]4[C@H](O)[C@H](O)[C@]5(C(=O)NC)C[C@H]45)c3n2)cc1 [Compound 321]
[Q] CNC(=O)[C@@]12C[C@@H]1[C@@H](n1cnc3c(NC)nc(C#Cc4ccc(C(C)=O)cc4)nc31)[C@H](O)[C@@H]2O [Compound 323]
Ask | Pick one: P or Q . Which has the bigger inhibition at 10 µM number? Pick one and reply with its label.
Reply | P
(P: 14%, Q: 8%)

[P] CNC(=O)[C@@]12C[C@@H]1[C@@H](n1cnc3c(NC)nc(C#Cc4ccc(Br)cc4)nc31)[C@H](O)[C@@H]2O [Compound 317]
[Q] CNC(=O)[C@@]12C[C@@H]1[C@@H](n1cnc3c(NC)nc(C#Cc4cccc(N)c4)nc31)[C@H](O)[C@@H]2O [Compound 318]
Ask | Short answer wanted: higher inhibition at 10 µM, P or Q ? Please respond with the label that marks your chosen entry.
Reply | Q
(Q: 16%, P: 11%)

[P] CNC(=O)[C@@]12C[C@@H]1[C@@H](n1cnc3c(NC)nc(C#Cc4cccc(Cl)c4)nc31)[C@H](O)[C@@H]2O [Compound 315]
[Q] CNC(=O)[C@@]12C[C@@H]1[C@@H](n1cnc3c(NCc4cccc(Cl)c4)nc(C#Cc4cccc(C(=O)O)c4)nc31)[C@H](O)[C@@H]2O [Compound 333]
Ask | // returns P or Q , whichever has the lower inhibition at 10 µM Identify your selection by its label.
Reply | Q

[P] CNC(=O)[C@@]12C[C@@H]1[C@@H](n1cnc3c(NC)nc(C#Cc4ccccc4F)nc31)[C@H](O)[C@@H]2O [Compound 311]
[Q] CNC(=O)[C@@]12C[C@@H]1[C@@H](n1cnc3c(NC)nc(C#Cc4ccc(Cl)cc4)nc31)[C@H](O)[C@@H]2O [Compound 316]
Ask | Lab note: record which item had the higher inhibition at 10 µM, P or Q . Write the label of whichever entry you select.
Reply | P

----------
- study_target: mouse A3 adenosine receptor (Mus musculus, UniProt Q61618)
- Sequence (Q61618 whole entry): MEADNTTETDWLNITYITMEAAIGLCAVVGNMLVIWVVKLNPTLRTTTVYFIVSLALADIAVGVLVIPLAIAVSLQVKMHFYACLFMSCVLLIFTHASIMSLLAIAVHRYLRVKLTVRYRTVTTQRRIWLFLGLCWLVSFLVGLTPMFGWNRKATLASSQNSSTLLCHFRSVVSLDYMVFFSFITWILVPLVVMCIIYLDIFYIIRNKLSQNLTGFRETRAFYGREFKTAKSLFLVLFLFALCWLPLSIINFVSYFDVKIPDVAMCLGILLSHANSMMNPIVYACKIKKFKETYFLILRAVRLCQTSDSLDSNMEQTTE
- experiment_summary: Competition radioligand binding, mouse A3 AR, HEK293 membranes (Table 1)
- condition_description: mouse
measured_quantity: Selectivity A1/A3

molecule	Selectivity A1/A3
CNC(=O)C12CC1C(n1cnc3c(NCC(c4ccccc4)c4ccccc4)nc(Cl)nc31)C(O)C2O (centres unmarked)	4.1

[a] CNC(=O)C12CC1C(n1cnc3c(NOC)nc(Cl)nc31)C(O)C2O (centres unmarked)
[b] CNC(=O)C12CC1C(n1cnc3c(NCc4cccc(Cl)c4)nc(C#CCCCC(=O)NCCN)nc31)C(O)C2O (centres unmarked)
[c] CNC(=O)[C@@]12C[C@@H]1[C@@H](n1cnc3c(NCc4cc(OC)ccc4OC)nc(Cl)nc31)[C@H](O)[C@@H]2O
[d] CNC(=O)[C@@]12C[C@@H]1[C@@H](n1cnc3c(NCc4cccc(Br)c4)nc(Cl)nc31)[C@H](O)[C@@H]2O
Ask | Let's sort these by Selectivity A1/A3, smallest first. Go ahead? Please express your ranking as an ordered list of the labels.
Reply | a, d, c, b
(a: 1.3, d: 9.8, c: 17, b: 64)
